- STUDY_SYSTEM: Beta-lactamase (Enterobacter cloacae)
- Sequence (P05364 whole entry): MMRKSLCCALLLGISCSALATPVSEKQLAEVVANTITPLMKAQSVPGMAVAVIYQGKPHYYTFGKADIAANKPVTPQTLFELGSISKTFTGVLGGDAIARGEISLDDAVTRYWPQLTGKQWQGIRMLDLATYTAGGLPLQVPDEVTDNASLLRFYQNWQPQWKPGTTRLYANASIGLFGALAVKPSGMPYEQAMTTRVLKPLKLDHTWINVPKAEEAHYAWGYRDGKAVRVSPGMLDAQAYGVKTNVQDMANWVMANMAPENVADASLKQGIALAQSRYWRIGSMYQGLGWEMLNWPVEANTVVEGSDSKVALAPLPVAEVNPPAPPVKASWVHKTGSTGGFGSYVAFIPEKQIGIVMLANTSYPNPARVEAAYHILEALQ
- ASSAY_SUMMARY: In vitro inhibitory activity against Beta-lactamase AmpC of class C enzyme
VALUE_KIND: pIC50
Expect pIC50 as a plain number equal to -log10 of the molar concentration.

[
  {
    "COMPOUND": "CC(C)(C)[Si](C)(C)O[C@H]1CC12C(=O)N1C(C(=O)O)C(C)(C)S(=O)(=O)[C@@H]12 (single isomer, unassigned)",
    "STUDY_SYSTEM": "Beta-lactamase (Enterobacter cloacae)",
    "pIC50": 5.39
  },
  {
    "COMPOUND": "CC1(C)[C@H](C(=O)O)N2C(=O)[C@@]3(C[C@@H]3OC3CCCCC3)[C@H]2S1(=O)=O",
    "STUDY_SYSTEM": "Beta-lactamase (Enterobacter cloacae)",
    "pIC50": 5.49
  },
  {
    "COMPOUND": "CC1(C)[C@H](C(=O)O)N2C(=O)[C@]3(C[C@@H]3OC3CCCCC3)[C@H]2S1(=O)=O",
    "STUDY_SYSTEM": "Beta-lactamase (Enterobacter cloacae)",
    "pIC50": 7.52
  },
  {
    "COMPOUND": "CC(C)(C)[Si](C)(C)O[C@H]1C[C@]12C(=O)N1[C@@H](C(=O)O)C(C)(C)S(=O)(=O)[C@@H]12",
    "STUDY_SYSTEM": "Beta-lactamase (Enterobacter cloacae)",
    "pIC50": 7.70
  }
]

Entry CC(C)(C)[Si](C)(C)O[C@@H]1CC12C(=O)N1[C@@H](C(=O)O)C(C)(C)S(=O)(=O)[C@@H]12 (single isomer, unassigned) has what pIC50?
6.40
